The reader will find reported inhibition values listed item by item below.
Biological target: Polyunsaturated fatty acid 5-lipoxygenase (Homo sapiens) (UniProt P09917)
Sequence (whole entry): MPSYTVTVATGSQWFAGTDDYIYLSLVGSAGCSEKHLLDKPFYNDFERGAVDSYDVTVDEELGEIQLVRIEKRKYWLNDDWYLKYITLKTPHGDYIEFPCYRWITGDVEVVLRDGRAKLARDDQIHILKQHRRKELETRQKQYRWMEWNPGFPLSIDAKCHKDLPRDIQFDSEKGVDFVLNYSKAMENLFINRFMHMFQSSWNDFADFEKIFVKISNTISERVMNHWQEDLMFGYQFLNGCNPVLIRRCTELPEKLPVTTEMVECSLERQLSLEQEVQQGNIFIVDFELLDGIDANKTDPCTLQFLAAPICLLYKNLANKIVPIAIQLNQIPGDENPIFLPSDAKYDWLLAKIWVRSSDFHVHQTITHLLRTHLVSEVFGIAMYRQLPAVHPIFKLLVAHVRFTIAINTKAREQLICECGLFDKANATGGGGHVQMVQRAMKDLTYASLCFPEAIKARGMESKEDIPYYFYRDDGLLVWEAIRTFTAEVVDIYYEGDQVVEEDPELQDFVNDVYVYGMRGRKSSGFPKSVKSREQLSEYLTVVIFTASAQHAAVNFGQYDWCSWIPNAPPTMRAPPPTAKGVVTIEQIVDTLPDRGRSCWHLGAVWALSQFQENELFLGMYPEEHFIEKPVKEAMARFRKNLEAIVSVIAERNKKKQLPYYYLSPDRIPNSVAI
Experiment: Inhibition of 5-LOX at 10 uM
The figure you give is taken to be in %; do not add the unit.

CCOC(=O)c1c(N2CCN(c3ccccc3)CC2)n(C)c2ccc(OC)cc12	36
CCOC(=O)c1c(NC(C)c2ccccc2)[nH]c2ccc(O)cc12 (stereo not given)	72
CCOC(=O)c1c(N2CCN(c3ccccc3)CC2)[nH]c2ccc(O)cc12	79
CCOC(=O)c1c(N2CCN(c3ccc(F)cc3)CC2)[nH]c2ccc(O)cc12	81

// recorded inhibition for CC(Nc1[nH]c2ccc(O)cc2c1C#N)c1ccccc1 (stereo not given) : 62

// recorded inhibition for CCOC(=O)c1c(N2CCN(c3ccc(Cl)cc3)CC2)[nH]c2ccc(O)cc12 : 69

---

The reader will find reported IC50 values listed item by item below.
Biological target: Polyunsaturated fatty acid 5-lipoxygenase (Homo sapiens, UniProt P09917)
Test: Inhibition of 5-LOX
The figure you give is taken to be in µM; do not add the unit.

CCOC(=O)c1c(Nc2ccc(C)cc2)[nH]c2ccc(O)cc12	5
CC(Nc1[nH]c2ccc(O)cc2c1C#N)c1ccccc1 (centres undefined)	10
CCOC(=O)c1c(N2CCN(c3ccc(Cl)cc3)CC2)[nH]c2ccc(O)cc12	2.3
CCOC(=O)c1c(Nc2ccccc2)[nH]c2ccc(O)cc12	2.3
CCOC(=O)c1c(N2CCN(c3ccccc3)CC2)[nH]c2ccc(O)cc12	3.1

// recorded IC50 for CCOC(=O)c1c(NC(C)c2ccccc2)[nH]c2ccc(O)cc12 (centres undefined) : 3

// recorded IC50 for C=CCN(CC=C)c1[nH]c2ccc(O)cc2c1C(=O)OCC : 7.1

// recorded IC50 for CCOC(=O)c1c(NC(C)c2ccccc2)[nH]c2ccccc12 (centres undefined) : 9.8

// recorded IC50 for CCOC(=O)c1c(Nc2cccc(Cl)c2)[nH]c2ccc(O)cc12 : 0.3
